- System name: Aurora-2 (Aurora A) (Homo sapiens)
- Sequence (O14965 1-403): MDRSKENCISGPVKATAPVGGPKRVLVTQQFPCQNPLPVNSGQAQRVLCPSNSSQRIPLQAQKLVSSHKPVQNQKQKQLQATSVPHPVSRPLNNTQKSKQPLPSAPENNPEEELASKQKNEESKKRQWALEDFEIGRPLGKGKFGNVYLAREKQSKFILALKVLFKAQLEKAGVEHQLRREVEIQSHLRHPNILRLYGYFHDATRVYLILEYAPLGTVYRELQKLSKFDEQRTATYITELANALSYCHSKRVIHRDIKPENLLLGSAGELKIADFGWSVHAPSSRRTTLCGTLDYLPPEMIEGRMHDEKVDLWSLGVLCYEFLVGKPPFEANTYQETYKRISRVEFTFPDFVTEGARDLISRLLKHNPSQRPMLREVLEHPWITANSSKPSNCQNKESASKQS
- Experiment: Aurora-2 (Aurora A) Inhibition Assay (coupled enzyme assay)
- Format: biochemical
- Stated conditions: read-out: Aurora A Ki
Each entry below carries its reported Ki.
# unit: nM | format: bare number

Below: 3 compounds and their reported Ki.
CCC(=O)Nc1ccc(Sc2nc(Nc3cc(C)n[nH]3)cc(N3CC4(C3)OCC4(C)C)n2)cc1: 0.735
CCC(=O)Nc1ccc(Sc2nc(Nc3cc(C)n[nH]3)cc(N3CC(C)(OC(C)C)C3)n2)cc1: 1.35
CCC(=O)Nc1ccc(Sc2nc(Nc3cc(C)n[nH]3)cc(N3CC=C(C(C)(C)C)CC3)n2)cc1: 0.524

Look up and report measured Ki for this entry: COc1cccc(Sc2nc(NC3=NN=C(C)C3)cc(N3CCN(C(C)(C)C)CC3)n2)c1 8.5

* * *

Assay system Aurora-1 (Aurora B) (Homo sapiens, UniProt Q96GD4); read-out recorded as log10 Ki.
// units: µM (pre-log); metric: Ki; scale: log10

Below: 3 compounds and their reported log10 Ki.
CCC(=O)Nc1ccc(Sc2nc(Nc3cc(C)n[nH]3)cc(N3CCC(O)(C(C)(C)C)C3)n2)cc1 (stereo not shown) [Compound 27]: -0.99
Cc1cc(Nc2cc(N3CCN(C(C)(C)C)CC3)nc(Sc3ccc(NC(=O)C4CCCC4)cc3)n2)[nH]n1 [Compound 5]: -1.67
Cc1cc(Nc2cc(N3CCC3)nc(Sc3ccc(NC(=O)CC(F)(F)F)cc3)n2)n[nH]1 [Compound 12]: -2.14

Look up and report measured log10 Ki for this entry: Cc1cc(Nc2cc(N3CC(F)(C4CC4)C3)nc(Sc3ccc(NC(=O)CC(F)(F)F)cc3)n2)[nH]n1 [Compound 35] -2.17

Look up and report measured log10 Ki for this entry: Cc1cc(Nc2cc(N3CC(O)(C4CC4)C3)nc(Sc3ccc(NC(=O)C4CC4)cc3)n2)n[nH]1 [Compound 31] -2.15

Look up and report measured log10 Ki for this entry: CCC(=O)Nc1ccc(Sc2nc(Nc3cc(C)n[nH]3)cc(N3CCN(C(C)(C)C)CC3)n2)cc1 [Compound 2] -1.95

Look up and report measured log10 Ki for this entry: Cc1cc(Nc2cc(N3CCC3)nc(Sc3ccc(NC(=O)c4ccccc4C(F)(F)F)cc3)n2)[nH]n1 [Compound 13] -2.35

Look up and report measured log10 Ki for this entry: CCC(=O)Nc1ccc(Sc2nc(Nc3cc(C)n[nH]3)cc(N3CCC(NC(C)(C)C)CC3)n2)cc1 [Compound 11] -1.55

* * *

Each entry below carries its reported pKi.
- System name: Aurora-2 (Aurora A) (Homo sapiens, UniProt O14965)
- Experiment: Aurora-2 (Aurora A) Inhibition Assay (coupled enzyme assay)
- Assay type: biochemical
- Stated conditions: read-out: Aurora A Ki
// pKi: -log10(molar conc.)

CCC(=O)Nc1ccc(Sc2nc(Nc3cc(C)n[nH]3)cc(N3CCC(C#N)(c4ccccc4OC)CC3)n2)cc1: 9.05

Give pKi for Cc1cc(Nc2cc(N3CC(O)(C4CC4)C3)nc(Sc3ccc(NC(=O)C4CC4)cc3)n2)n[nH]1 tested on Aurora-2 (Aurora A) (Homo sapiens, UniProt O14965). 9.06

Give pKi for Cc1cc(Nc2cc(N3CC(O)(C4CC4)C3)nc(Sc3ccc4ccccc4c3)n2)n[nH]1 tested on Aurora-2 (Aurora A) (Homo sapiens, UniProt O14965). 9.20

Give pKi for CCC(=O)Nc1ccc(Sc2nc(Nc3cc(C)n[nH]3)cc(N3CC(O)(C(C)(C)C)C3)n2)cc1 tested on Aurora-2 (Aurora A) (Homo sapiens, UniProt O14965). 9.46

Give pKi for Cc1cc(Nc2cc(N3CCN(C(C)(C)C)CC3)nc(Sc3ccc(NC(=O)C4CCCC4)cc3)n2)[nH]n1 tested on Aurora-2 (Aurora A) (Homo sapiens, UniProt O14965). 8.46

Give pKi for Cc1cc(Nc2cc(N3CCC3)nc(Sc3ccc(NC(=O)CC(F)(F)F)cc3)n2)n[nH]1 tested on Aurora-2 (Aurora A) (Homo sapiens, UniProt O14965). 9.15

* * *

- System name: Aurora-2 (Aurora A) (Homo sapiens)
- Experiment: Aurora-2 (Aurora A) Inhibition Assay (coupled enzyme assay)
- Type: biochemical
- Stated conditions: read-out: Aurora A Ki
Measurement name: Ki

Below: 3 compounds and their reported Ki.
CCC(=O)Nc1ccc(Sc2nc(Nc3cc(C)n[nH]3)cc(N3CC(O)(C4CC4)C3)n2)cc1: 0.387 nM
Cc1cc(Nc2cc(N3CCC3)nc(Sc3ccc(NC(=O)c4ccccc4C(F)(F)F)cc3)n2)[nH]n1: 0.382 nM
CCC(=O)Nc1ccc(Sc2nc(Nc3cc(C)n[nH]3)cc(N3CCN(C(C)(C)CC)CC3)n2)cc1: 2.6 nM

Look up and report measured Ki for this entry: Cc1cc(Nc2cc(N3CC(F)(C4CC4)C3)nc(Sc3ccc(NC(=O)CC(F)(F)F)cc3)n2)[nH]n1 0.354 nM

* * *

Each entry below carries its reported Ki.
- System name: Aurora-2 (Aurora A) (Homo sapiens)
- Experiment: Aurora-2 (Aurora A) Inhibition Assay (coupled enzyme assay)
- Format: biochemical
- Stated conditions: read-out: Aurora A Ki
# unit: nM | format: bare number

Below: 3 compounds and their reported Ki.
CCOc1ccc(Sc2nc(Nc3cc(C)n[nH]3)cc(N3CCN(C(C)(C)C)CC3)n2)cc1: 5.2
CCC(=O)Nc1ccc(Sc2nc(NCCN3CCCCC3)cc(Nc3cc(C)n[nH]3)n2)cc1: 8.85
CCC(=O)Nc1ccc(Sc2nc(Nc3cc(C)n[nH]3)cc(N3CCC(O)(c4cc(F)ccc4OC)CC3)n2)cc1: 0.365

Look up and report measured Ki for this entry: CCC(=O)Nc1ccc(Sc2nc(Nc3cc(C)n[nH]3)cc(N3CCC(O)(C(C)(C)C)CC3)n2)cc1 0.595

* * *

- System name: Aurora-2 (Aurora A) (Homo sapiens)
- Experiment: Aurora-2 (Aurora A) Inhibition Assay (coupled enzyme assay)
- Format: biochemical
- Stated conditions: read-out: Aurora A Ki
Measurement name: log10(Ki) (log10 of the value in nM)
// units: nM (pre-log); metric: Ki; scale: log10

Below: 6 molecules and their reported log10(Ki).
CCC(=O)Nc1ccc(Sc2nc(Nc3cc(C)n[nH]3)cc(N3CCN(C(C)(C)CF)CC3)n2)cc1 [Compound 10]: 0.30
CCC(=O)Nc1ccc(Sc2nc(Nc3cc(C)n[nH]3)cc(N3CCC(N(C)C(C)(C)C)CC3)n2)cc1 [Compound 15]: 0.40
CCC(=O)Nc1ccc(Sc2nc(Nc3cc(C)n[nH]3)cc(N3CC(C)(N4CCCC4)C3)n2)cc1 [Compound 22]: -0.17
CCC(=O)Nc1ccc(Sc2nc(Nc3cc(C)n[nH]3)cc(N3CCN(C(C)(C)CO)CC3)n2)cc1 [Compound 8]: 0.44
Cc1cc(Nc2cc(N3CCC(F)C3)nc(Sc3ccc(NC(=O)CC(F)(F)F)cc3)n2)[nH]n1 (stereo not shown) [Compound 32]: -0.46
CCC(=O)Nc1ccc(Sc2nc(Nc3cc(C)n[nH]3)cc(N3CCC(NC(C)(C)C)CC3)n2)cc1 [Compound 11]: 0.89

Look up and report measured log10(Ki) for this entry: Cc1cc(Nc2cc(N3CCN(C(C)(C)C)CC3)nc(Sc3ccc(NC(=O)C4CC4)cc3)n2)[nH]n1 [Compound 3] 0.33

* * *

- System name: Aurora-1 (Aurora B) (Homo sapiens)
- Sequence (Q96GD4 whole entry): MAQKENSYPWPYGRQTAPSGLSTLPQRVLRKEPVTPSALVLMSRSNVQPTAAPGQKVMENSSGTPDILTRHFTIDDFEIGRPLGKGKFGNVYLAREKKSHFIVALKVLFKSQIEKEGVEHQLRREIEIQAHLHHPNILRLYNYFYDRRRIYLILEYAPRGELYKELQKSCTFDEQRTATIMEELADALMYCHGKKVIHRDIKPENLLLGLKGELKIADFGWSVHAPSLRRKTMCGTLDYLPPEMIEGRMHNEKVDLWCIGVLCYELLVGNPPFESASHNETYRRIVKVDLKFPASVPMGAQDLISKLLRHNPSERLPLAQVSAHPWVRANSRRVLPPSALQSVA
# label = bin(measured Ki), where bins are small value = under 20 nM, mid value = from 20 nM up to 50 nM, large value = 50 nM and over

Band assignment needed for CCC(=O)Nc1ccc(Sc2nc(Nc3cc(C)n[nH]3)cc(N3CC=C(C(C)(C)C)CC3)n2)cc1 please. large value

Band assignment needed for COc1cccc(Sc2nc(NC3=NN=C(C)C3)cc(N3CCN(C(C)(C)C)CC3)n2)c1 please. large value

Band assignment needed for CCC(=O)Nc1ccc(Sc2nc(Nc3cc(C)n[nH]3)cc(N3CCN(C(C)(C)CF)CC3)n2)cc1 please. mid value

Band assignment needed for CCC(=O)Nc1ccc(Sc2nc(Nc3cc(C)n[nH]3)cc(N3CCC(O)(C(C)(C)C)CC3)n2)cc1 please. small value

Band assignment needed for CCC(=O)Nc1ccc(Sc2nc(Nc3cc(C)n[nH]3)cc(N3CCC4(CCN(C)C4)CC3)n2)cc1 please. large value

Band assignment needed for Cc1cc(Nc2cc(N3CCN(C(C)(C)C)CC3)nc(Sc3ccc(NC(=O)C4CC4)cc3)n2)[nH]n1 please. mid value

Band assignment needed for Cc1cc(Nc2cc(N3CCC(F)C3)nc(Sc3ccc(NC(=O)CC(F)(F)F)cc3)n2)[nH]n1 (centres unmarked) please. small value

Band assignment needed for CCOc1ccc(Sc2nc(Nc3cc(C)n[nH]3)cc(N3CCN(C(C)(C)C)CC3)n2)cc1 please. mid value

Band assignment needed for CCC(=O)Nc1ccc(Sc2nc(Nc3cc(C)n[nH]3)cc(N3CCC(N(C)C(C)(C)C)CC3)n2)cc1 please. mid value

Reference for the values: patent US20140141099A1
